Recorded activation, one value per entry.
target: Caspase-3 (Homo sapiens) (UniProt P42574); experiment: procaspase-3 enzyme activation – biochemical, absorbance, PC-3 D3A mutant, single concentration, primary screen (AID 463141); settings: recombinant procaspase-3 D3A, Ac-DEVD-pNA absorbance 405 nm; at 8.5 µM; stronger effect = higher value;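 also: 0% = DMSO alone and 100% = DMSO wells spiked with extra 5 µM PC-3 D3A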
Sequence (P42574 whole entry D9A/D28A/D175A): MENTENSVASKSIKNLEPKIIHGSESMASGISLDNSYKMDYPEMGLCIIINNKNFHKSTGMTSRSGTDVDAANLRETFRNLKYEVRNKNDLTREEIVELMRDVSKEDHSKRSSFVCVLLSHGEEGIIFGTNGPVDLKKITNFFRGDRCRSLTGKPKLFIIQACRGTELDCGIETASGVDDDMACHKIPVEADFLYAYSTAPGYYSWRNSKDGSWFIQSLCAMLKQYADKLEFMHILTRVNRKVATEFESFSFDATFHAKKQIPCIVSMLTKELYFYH
In all, about 330,000 compounds went through this assay and about 350 (0.11%) were called active. For the sample, actives were picked, then their nearest neighbours and some compounds at random.
Give your result in % as a bare value.

Prompt line: If you can, please state the reported activation value of `N#CC1(NC(=O)COC(=O)CSc2ccc(F)cc2)CCCCC1` .
Response line: -6.99

Prompt line: Try this compound too: `CN1CCCN(C(=O)C2CCCCC2)CC1`
Response line: 5.38

Prompt line: Try this compound too: CC(C)C[C@H](NC(=O)C1CC(=O)N(c2ccc3c(c2)OCCO3)C1)C(=O)NC1CCCC1 (some centres not stated)
Response line: 0.18

Prompt line: Try this compound too: `COCCCNC(=S)N(Cc1ccccc1)Cc1ccc(F)cc1`
Response line: -1.61

Prompt line: Try this compound too: `CCCN1C2=C(C(=O)CCC2)C(c2ccc(O)c(Br)c2)C2=C1CCCC2=O`
Response line: -10.1

Prompt line: Try this compound too: `CC(C)C(=O)N1CCN(c2nc(-c3ccccc3)c3c(c2C#N)CC(C)(C)OC3)CC1`
Response line: 5.16

----------
target: Caspase-3 (Homo sapiens) (UniProt P42574); test: procaspase-3 enzyme activation – biochemical, absorbance, PC-3 D3A mutant, single concentration, primary screen (AID 463141); settings: recombinant procaspase-3 D3A, Ac-DEVD-pNA absorbance 405 nm; at 8.5 µM; stronger effect = higher value;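 also: 0% = DMSO alone and 100% = DMSO wells spiked with extra 5 µM PC-3 D3A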
Among all 330,000 compounds or so, about 350 (0.11%) were called active. The sample holds actives, similar compounds and a random draw of the others, so the mix is not that of the screen.
Recorded activation, one value per entry.
Give your result in % as a bare value.

| COMPOUND | TEST SYSTEM | activation (%) |
| --- | --- | --- |
| c1cnc(N2CCN(c3ccc4ccccc4n3)CC2)nc1 | Caspase-3 (Homo sapiens) (UniProt P42574) | 2.75 |

Prompt line: If you can, please state the reported activation value of `FC(F)(F)c1cccc(-c2nc(COc3ccc(Cl)cc3Cl)no2)c1` .
Response line: -1.22

Prompt line: Try this compound too: `CCn1c(SCC(=O)Nc2ccc(C)cc2)nc2nc3c(cc2c1=O)CCCC3`
Response line: 3.79

Prompt line: Try this compound too: `Cc1[nH]n(C(N)=S)c(=O)c1N=Nc1ccc(Cl)cc1Cl`
Response line: -2.96

Prompt line: Try this compound too: `Cc1ccc(Cl)cc1NC(=O)C1CCN(S(C)(=O)=O)CC1`
Response line: -5.8

Prompt line: Try this compound too: `CN1CCN(CCNC(=O)Nc2ccccc2[N+](=O)[O-])CC1`
Response line: 4.28

Prompt line: Try this compound too: COC(=O)c1cc(OC)c(OC)cc1NC(=O)C1CCCO1 (centres undefined)
Response line: -0.83

Prompt line: Try this compound too: `CCCC(=O)Nc1nc2ccc(NC(=O)c3c(F)c(F)c(OC)c(F)c3F)cc2s1`
Response line: 8.06

Prompt line: Try this compound too: `COc1ccc(S(=O)(=O)Nc2ccccc2C(=O)N2CCCC2)cc1C`
Response line: 9.9

Prompt line: Try this compound too: `CCOc1ccc2nc(NCCNC(=O)C(C)(C)C)c(C)cc2c1`
Response line: -11.1

Prompt line: Try this compound too: `COc1ccc(CN2CCN(C(=O)CCC(=O)Nc3nnc(C(C)C)s3)CC2)cc1F`
Response line: -6.44

Prompt line: Try this compound too: `COC(CCN(C)C)(c1ccccc1)c1ccccc1`
Response line: -2.83

Prompt line: Try this compound too: `COC(=O)[C@]1(S(=O)(=O)c2ccccc2)C[C@@H]2ON=C(c3ccc(OC)cc3)[C@@H]2C1`
Response line: -6.69
